Hello, the source for this data is ChEMBL document CHEMBL4814033, in case you need it.

// values below are reported MIC
# Tested on: Pseudomonas aeruginosa
# Protocol: Antibacterial activity against Pseudomonas aeruginosa by broth microdilution assay
# Type: functional

Smiles Representation | MIC
CCCCCCCCCCCCSc1nnc(CS(=O)(=O)c2ccc(NC(C)=O)cc2)o1 | 256 µg/mL
CCOC(=O)CSc1nnc(CS(=O)(=O)c2ccc(NC(C)=O)cc2)o1 | 64 µg/mL
CC(=O)CSc1nnc(CS(=O)(=O)c2ccc(NC(C)=O)cc2)o1 | 64 µg/mL
C#CCSc1nnc(CS(=O)(=O)c2ccc(NC(C)=O)cc2)o1 | 64 µg/mL
CC(=O)Nc1ccc(S(=O)(=O)Cc2nnc(SCC#N)o2)cc1 | 256 µg/mL

Need MIC of CC(=O)Nc1ccc(S(=O)(=O)Cc2nnc(S)o2)cc1 , thanks.
256 µg/mL

----------
# Tested on: Pseudomonas aeruginosa
# Protocol: Antibacterial activity against Pseudomonas aeruginosa by broth microdilution assay
# Format: functional
// values below are reported MIC
Your answer is read as µg/mL, so omit the unit and give the number.

Need MIC of C=CCSc1nnc(CS(=O)(=O)c2ccc(NC(C)=O)cc2)o1 , thanks.
256

Need MIC of CC(=O)Nc1ccc(S(=O)(=O)Cc2nnc(SCCO)o2)cc1 , thanks.
32

Need MIC of CC(=O)Nc1ccc(S(=O)(=O)Cc2nnc(SCc3ccc(F)cc3F)o2)cc1 , thanks.
64

Need MIC of CCn1cc(C(=O)O)c(=O)c2cc(F)c(N3CCNCC3)cc21 [NORFLOXACIN] , thanks.
4

Need MIC of CC(=O)Nc1ccc(S(=O)(=O)Cc2nnc(SCCF)o2)cc1 , thanks.
64

Need MIC of CC(=O)Nc1ccc(S(=O)(=O)Cc2nnc(SCC3CC3)o2)cc1 , thanks.
64

----------
// values below are reported MIC
# Test system: Pseudomonas aeruginosa
# Protocol: Antibacterial activity against Pseudomonas aeruginosa ATCC 27853 by broth microdilution assay
# Assay type: functional
Your answer is read as µg/mL, so omit the unit and give the number.

Smiles Representation | Observed Property | Observed Value
CC(=O)Nc1ccc(S(=O)(=O)Cc2nnc(SCc3ccc(F)cc3F)o2)cc1 | MIC | 64
CCCCCCCCCCCCSc1nnc(CS(=O)(=O)c2ccc(NC(C)=O)cc2)o1 | MIC | 256
CCCCSc1nnc(CS(=O)(=O)c2ccc(NC(C)=O)cc2)o1 | MIC | 256
CC(=O)Nc1ccc(S(=O)(=O)Cc2nnc(SCc3ccc(Cl)cc3Cl)o2)cc1 | MIC | 256
CC(=O)Nc1ccc(S(=O)(=O)Cc2nnc(SCC#N)o2)cc1 | MIC | 256

We next turn to a different compound, shown below.
Need MIC of CC(=O)Nc1ccc(S(=O)(=O)Cc2nnc(SCCO)o2)cc1 , thanks.
128

----------
# Tested on: Pseudomonas aeruginosa
# Protocol: Antibacterial activity against Pseudomonas aeruginosa ATCC 27853 by broth microdilution assay
# Format: functional
// values below are reported MIC
Your answer is read as µg/mL, so omit the unit and give the number.

Reference set, count: 2
Compound | Measurement Target | MIC [µg/mL]
CC(=O)Nc1ccc(S(=O)(=O)Cc2nnc(S)o2)cc1 | Pseudomonas aeruginosa | 256
CCn1cc(C(=O)O)c(=O)c2cc(F)c(N3CCNCC3)cc21 [NORFLOXACIN] | Pseudomonas aeruginosa | 8

We next turn to a different compound, shown below.
Need MIC of CC(=O)Nc1ccc(S(=O)(=O)Cc2nnc(SCCF)o2)cc1 , thanks.
128

----------
// values below are reported MIC
# Test system: Klebsiella pneumoniae
# Protocol: Antibacterial activity against Klebsiella pneumonia by broth microdilution assay
# Assay type: functional

Smiles Representation | Observed Property | Observed Value
CC(=O)Nc1ccc(S(=O)(=O)Cc2nnc(SCc3ccc(Cl)cc3Cl)o2)cc1 | MIC | 16 µg/mL
CCCCSc1nnc(CS(=O)(=O)c2ccc(NC(C)=O)cc2)o1 | MIC | 256 µg/mL
CC(=O)Nc1ccc(S(=O)(=O)Cc2nnc(SCC(=O)O)o2)cc1 | MIC | 64 µg/mL

Need MIC of CCOC(=O)CSc1nnc(CS(=O)(=O)c2ccc(NC(C)=O)cc2)o1 , thanks.
64 µg/mL

----------
// values below are reported MIC
# System: Pseudomonas aeruginosa
# Protocol: Antibacterial activity against Pseudomonas aeruginosa by broth microdilution assay
# Format: functional
Your answer is read as µg/mL, so omit the unit and give the number.

Reference set, count: 4
Smiles Representation | Unit Abbreviation | MIC
CCN(CC)CCSc1nnc(CS(=O)(=O)c2ccc(NC(C)=O)cc2)o1 | µg/mL | 128
CC(=O)Nc1ccc(S(=O)(=O)Cc2nnc(SCc3ccc(Cl)cc3Cl)o2)cc1 | µg/mL | 64
CCCCCCSc1nnc(CS(=O)(=O)c2ccc(NC(C)=O)cc2)o1 | µg/mL | 256
CCCCSc1nnc(CS(=O)(=O)c2ccc(NC(C)=O)cc2)o1 | µg/mL | 256

We next turn to a different compound, shown below.
Need MIC of CC(=O)Nc1ccc(S(=O)(=O)Cc2nnc(SCC(=O)O)o2)cc1 , thanks.
128

----------
# Test system: Pseudomonas aeruginosa
# Protocol: Antibacterial activity against Pseudomonas aeruginosa ATCC 27853 by broth microdilution assay
# Format: functional
// values below are reported MIC
Your answer is read as µg/mL, so omit the unit and give the number.

Smiles Representation | MIC [µg/mL]
CCN(CC)CCSc1nnc(CS(=O)(=O)c2ccc(NC(C)=O)cc2)o1 | 64
CC(=O)Nc1ccc(S(=O)(=O)Cc2nnc(SCC3CC3)o2)cc1 | 64
C#CCSc1nnc(CS(=O)(=O)c2ccc(NC(C)=O)cc2)o1 | 256
CCCCCCSc1nnc(CS(=O)(=O)c2ccc(NC(C)=O)cc2)o1 | 256
CC(=O)CSc1nnc(CS(=O)(=O)c2ccc(NC(C)=O)cc2)o1 | 128

Need MIC of CCOC(=O)CSc1nnc(CS(=O)(=O)c2ccc(NC(C)=O)cc2)o1 , thanks.
128

Need MIC of C=CCSc1nnc(CS(=O)(=O)c2ccc(NC(C)=O)cc2)o1 , thanks.
256

Need MIC of CC(=O)Nc1ccc(S(=O)(=O)Cc2nnc(SCC(=O)O)o2)cc1 , thanks.
128
